# Tested on: E. coli
# assayProtocol: Growth rate analysis in liquid media of cells expressing induced peptides
# Format: cell-based
# settings: ALS225, minimal media, 1 mM IPTG, versus induced pLAC11 vector; average of three determinations
Reported % Inhibition (of the growth rate) is given for each of the following substances.
measuredProperty: % Inhibition (of the growth rate) (%)

| substance | assaySystem | reportedResult |
| --- | --- | --- |
| pPep5: 16 aa inhibitor peptide encoded by clone pPep5 (SEQ ID NO:36) (MWRDSWIKGRDVGFMG; stabilized peptide) | E. coli | 24 |
| pPep8: 21 aa inhibitor peptide (SEQ ID NO:43) (MLLFGGDCGKAGYFTVLPSR; stabilized peptide) | E. coli | 29 |
| pPep10: 20 aa inhibitor peptide (SEQ ID NO:45) (MIGGSLSFAWAIVCNKNSHV; stabilized peptide) | E. coli | 24 |
